Biological target: T1, recombinant human BCMA, in house material (human, UniProt Q02223 4-53, limits assumed)
T1 construct: also called Human in house BCMA; In house human BCMA
T1 sequence (Q02223 4-53 limits assumed): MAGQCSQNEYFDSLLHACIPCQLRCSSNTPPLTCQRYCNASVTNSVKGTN
Assay: ProteOn SPR run 2, antibody captured on Protein A, 25C; Run 2 (Table 9)
Description: The initial screen of CA8 chimeric and humanised variants was carried out on the ProteOn XPR36 (Biorad). […]
Items are presented alongside their recorded Kd.
observed property: Kd (nM)

{"binder": "CA8 chimera antibody (human chimeric CA8) (antibody, V domains shown, also called Chimera CA8; CA8 chimeric antibody) VH: EVQLQQSGAVLARPGASVKMSCKGSGYTFTNYWMHWVKQRPGQGLEWIGATYRGHSDTYYNQKFKGKAKLTAVTSTSTAYMELSSLTNEDSAVYYCTRGAIYNGYDVLDNWGQGTLVTVSS VL: DIQLTQTTSSLSASLGDRVTISCSASQDISNYLNWYQQKPDGTVELVIYYTSNLHSGVPSRFSGSGSGTDYSLTIGYLEPEDVATYYCQQYRKLPWTFGGGSKLEIKR", "measure unit": "nM", "reported": 0.412}
{"binder": "CA8 humanised J6M0 (antibody, human IgG1, kappa, V domains shown, Humanised CA8, heavy chain J6 with light chain M0, human IgG1 kappa; also called CA8 J6M0; humanised J6M0 (wild type)) VH: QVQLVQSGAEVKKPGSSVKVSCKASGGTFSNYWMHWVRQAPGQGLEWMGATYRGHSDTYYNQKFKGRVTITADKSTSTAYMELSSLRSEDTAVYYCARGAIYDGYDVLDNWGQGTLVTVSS VL: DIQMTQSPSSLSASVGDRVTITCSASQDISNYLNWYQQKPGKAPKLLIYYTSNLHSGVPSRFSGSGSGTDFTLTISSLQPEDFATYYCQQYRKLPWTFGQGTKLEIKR", "measure unit": "nM", "reported": 0.308}
